Listed binders paired with reported IC50, inhibition of GM-CSF induced TF-1 proliferation (32 pM GM-CSF)
Target: T1, macaca GM-CSF (Macaca mulatta (identical in Macaca …, UniProt Q0MUT8 18-144 (Chlorocebus aethiops entry), limits assumed))
T1 chain: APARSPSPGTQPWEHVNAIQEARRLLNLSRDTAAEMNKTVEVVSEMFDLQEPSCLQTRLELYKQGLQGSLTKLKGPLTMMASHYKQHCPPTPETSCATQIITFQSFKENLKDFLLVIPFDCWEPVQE
Assay: cell-based or functional assay
experimental.readout: IC50, inhibition of GM-CSF induced TF-1 proliferation (32 pM GM-CSF) (pM)

binder	units.text	measured.number
humanized parental anti-GM-CSF 4K21 VH3-07.1AL+VK2-A3.2 hIgG1K antibody (MSB0010439) (antibody, V domains shown, Human IgG1 kappa; also called humanized parental 4K21 hVH hVL; parental 4K21) VH: EVQLVESGGGLVQPGGSLRLSCAASGFAFSAYDMSWVRQAPGKRLELVAYISSGGSSFYYPDTVKGRFTISRDNAKNSLYLQMNSLRAEDTAVYYCTRHLGFDYWGQGTLVTVSS VL: DIVMTQSPLSLPVTPGEPASISCRSSQSLVNSNGNTYLHWYLQKPGQSPQLLIYKVSNRFSGVPDRFSGSGSGTDFTLKISRVEAEDVGVYYCSQSTHVPPTFGQGTKVEIK	pM	793
MSB0010603 4K21 (4K21 hVH S56V-T62S hVL N28I-H34S-N53R-H93Y) (antibody, V domains shown, IgG) VH: EVQLVESGGGLVQPGGSLRLSCAASGFAFSAYDMSWVRQAPGKRLELVAYISSGGSVFYYPDSVKGRFTISRDNAKNSLYLQMNSLRAEDTAVYYCTRHLGFDYWGQGTLVTVSS VL: DIVMTQSPLSLPVTPGEPASISCRSSQSLVNSIGNTYLSWYLQKPGQSPQLLIYKVSRRFSGVPDRFSGSGSGTDFTLKISRVEAEDVGVYYCSQSTYVPPTFGQGTKVEIK	pM	82
anti-GM-CSF 4K21 hIgG1K antibody (MSB0010259), recombinant chimeric 4K21 (antibody, V domains shown, Murine variable domains fused to human constant IgG1 heavy chain and kappa light chain domains) VH: EVQLVESGGGLVKSGGSLKLSCAASGFAFSAYDMSWVRQTPEKRLELVAYISSGGSSFYYPDTVKGRFTISRDNAKNTLYLQMSSLKSEDTAMYYCTRHLGFDYWGQGTTLTVSS VL: DVVMTQTPLSLPVSLGDQASISCRSSQSLVNSNGNTYLHWFLQKPGQSPKLLIYKVSNRFSGVPDRFSGSGSGTDFTLKISRVEAEDLGVYFCSQSTHVPPTFGGGTKLEIK	pM	1220
MSB0010599 4K21 (4K21 hVH S55R-T62S hVL N28I-H34S-N53R-H93Y) (antibody, V domains shown, IgG) VH: EVQLVESGGGLVQPGGSLRLSCAASGFAFSAYDMSWVRQAPGKRLELVAYISSGGRSFYYPDSVKGRFTISRDNAKNSLYLQMNSLRAEDTAVYYCTRHLGFDYWGQGTLVTVSS VL: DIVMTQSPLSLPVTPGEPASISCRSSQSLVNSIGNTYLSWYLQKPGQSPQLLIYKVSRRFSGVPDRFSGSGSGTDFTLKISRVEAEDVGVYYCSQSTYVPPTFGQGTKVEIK	pM	54
